- recordedConditions: rat, in vivo, po, 250 mg/kg
reportedEndpoint: Metformin base concentration in plasma, 1 h post-administration
Units required after the number.

Recorded Metformin base concentration in plasma, 1 h post-administration, per entry:
| compound | result |
| --- | --- |
| CN(C)C(=N)NC(=N)N.C[C@H](N)C(=O)O [Metformin alaninate, metformin alaninate] | 13.00 ± 1.39 µg/mL |
| CN(C)C(=N)NC(=N)N.NC(=O)C[C@H](N)C(=O)O [Metformin asparaginate, metformin asparaginate] | 8.40 ± 1.12 µg/mL |
| CC(C)[C@H](N)C(=O)O.CN(C)C(=N)NC(=N)N [Metformin valinate, metformin valinate] | 11.56 ± 2.71 µg/mL |

Supply Metformin base concentration in plasma, 1 h post-administration value. Item: CC[C@H](C)[C@H](N)C(=O)O.CN(C)C(=N)NC(=N)N [Metformin isoleucinate, metformin isoleucinate]
14.47 ± 2.58 µg/mL

Data provenance: patent US11510886B2
